- System: DU-145
- MEASUREMENT_NOTES: NCI tumour cell line growth inhibition, 48 h
Calls of active or inactive are those of the source. No stated cut-off is given here; in the data, active = GI50 up to about 1.1 µM and inactive = higher.
Recorded GI50 values for a group of compounds are listed next.

| COMPOUND | GI50 |
| --- | --- |
| N/C(=N/c1ccc(O)cc1)S(=O)O | > 100 µM (inactive) |
| Cc1ccsc1/C=N/Nc1ccc2ccccc2n1 | 48.9 µM (inactive) |
| CC(=O)C(=NNc1ccc(-n2c(C)nc3ccccc3c2=O)cc1)C(C)=O | > 100 µM (inactive) |
| O=C1c2ccccc2C(=O)c2c(NCC(O)CO)ccc(NCC(O)CO)c21 (configuration not stated) | 38.6 µM (inactive) |
| CCOC(=O)C(=CNC(=S)c1ccncc1)C(=O)OCC | > 100 µM (inactive) |
| CCOC(=O)c1cnc(N(C)C)nc1SC(=N)N | > 100 µM (inactive) |
| CC(=O)NC1c2ccccc2C(C)(C)C12CCC1(CC2)OCCO1 (configuration not stated) | > 100 µM (inactive) |
| Cc1nc(C)c(N2CCNCC2)c(O)n1 | > 100 µM (inactive) |
| CCOP(=O)(OCC)C(Nc1ccc(Cl)cc1)c1ccc(F)cc1 (configuration not stated) | 24.5 µM (inactive) |
| O=C1N2CCc3c([nH]c4ccccc34)C23CC2CCCC12S3 (configuration not stated) | 39.4 µM (inactive) |
| Cc1ccc(S(=O)(=O)N2CCCSCCN(S(=O)(=O)c3ccc(C)cc3)CCCSCC2)cc1 | > 100 µM (inactive) |
| Cc1c2c(c(C)c3c4c(oc13)CCCC4)C=NCC2 | 15 µM (inactive) |

* * *

Recorded GI50 values for a group of molecules are listed next.
- Tested on: CAKI-1
- MEASUREMENT_NOTES: NCI tumour cell line growth inhibition, 48 h
The source made the active and inactive calls. No stated cut-off is given here; in the data, active = GI50 up to about 1.1 µM and inactive = higher. *1 amine or outer side, *2 acyl side, *3 side chain or, on linkers, in order; H or OH if unused. Where a SMILES comes first, the peptide text is derived from it. The star is where a group is joined. γGlu = O=C(O)[CH](CCC(=O)[*:2])N[*:1]; NHOH = ON*

| MOLECULE | MEASUREMENT_TARGET | GI50 |
| --- | --- | --- |
| CC(=O)COC(=O)CC(C)=O | CAKI-1 | > 100 µM (inactive) |
| O=C(CN1CCN(Cc2ccccc2)CC1)N1CCCn2c1nc1ccccc1c2=O | CAKI-1 | > 100 µM (inactive) |
| OC(Cn1cncn1)(Cn1cncn1)c1ccc(Cl)cc1Cl | CAKI-1 | > 100 µM (inactive) |
| C/C(CN1C(=O)c2ccccc2C1=O)=N\NS(=O)(=O)c1ccc(Br)cc1 | CAKI-1 | > 100 µM (inactive) |
| NC(=O)N/N=C(\Cc1nc2ccc(Cl)cc2nc1O)C(=O)Nc1ccc(Cl)cc1Cl | CAKI-1 | > 100 µM (inactive) |
| OCCN1CCN(c2nc(N3CCCC3)c3nc(Cl)c(NCc4ccccc4)nc3n2)CC1 | CAKI-1 | 9.44 µM (inactive) |
| CSc1ccc(Nc2cc(=O)[nH]c(=O)[nH]2)cc1 | CAKI-1 | > 100 µM (inactive) |
| Cc1nc2c(=O)[nH]c(=O)n(C)c2[nH]c1=O.c1ccncc1 | CAKI-1 | > 100 µM (inactive) |
| O=C1C=C(Br)C(=O)C12CCc1ccccc12 (stereo unspecified) | CAKI-1 | 6.47 µM (inactive) |
| Cc1ccc2c(=O)cc(Cc3cccs3)[nH]c2n1 | CAKI-1 | > 100 µM (inactive) |
| NC(CCCCNc1ccn(C2OC(CO)C(O)C2O)c(=O)n1)C(=O)O (stereo unspecified) | CAKI-1 | > 100 µM (inactive) |
| NCC(O)CSP(=O)(O)O (stereo unspecified) | CAKI-1 | > 100 µM (inactive) |
| O=C(/C=C/c1ccc(O)cc1)c1ccc(O)cc1 [4,4'-DIHYDROXYCHALCONE] | CAKI-1 | 18.1 µM (inactive) |
| CC(=O)NC(Cc1ccccc1)NC(=O)O (stereo unspecified) | CAKI-1 | > 100 µM (inactive) |
| NC(CCC(=O)NC(CCC(=O)NO)C(=O)NCC(=O)O)C(=O)O (stereo unspecified) (γGlu-Glu(NHOH)-Gly-OH; configuration not given here) | CAKI-1 | > 100 µM (inactive) |
| COc1cc2c3c(c1OC)Oc1ccc(cc1)CC1c4c(cc(OC)c(OC)c4Oc4ccc(cc4)CC3N(C)CC2)CCN1C (stereo unspecified) | CAKI-1 | 90.6 µM (inactive) |
| C=CCN1C[C@@H](C)N([C@@H](c2ccccc2)c2ccc(C(=O)N(CC)CC)cc2)C[C@@H]1C | CAKI-1 | > 100 µM (inactive) |
| O=C(NC(Cc1ccccc1)C(=O)CCl)OCc1ccccc1 (stereo unspecified) | CAKI-1 | 5.15 µM (inactive) |
| CC1(C)CC[C@]2(C(=O)O)CC[C@]3(C)C(=CCC4=C5C[C@H](O)[C@H](O)[C@@](C)(CO)[C@@]5(C)CC[C@]43C)[C@@H]2C1 | CAKI-1 | 28.1 µM (inactive) |
| CCOP1(=O)CC(C)=C(Cl)C(OC)C1 (stereo unspecified) | CAKI-1 | > 100 µM (inactive) |
| C1=N\c2ccc(cc2)-c2ccc(cc2)/N=C\c2ccc(cc2)OCc2cccc(n2)COc2ccc/1cc2 | CAKI-1 | > 100 µM (inactive) |

* * *

- Test system: A549
- MEASUREMENT_NOTES: NCI tumour cell line growth inhibition, 48 h
Calls of active or inactive are those of the source. No stated cut-off is given here; in the data, active = GI50 up to about 1.1 µM and inactive = higher.
Recorded GI50 values for a group of compounds are listed next.

| COMPOUND | GI50 |
| --- | --- |
| O[C@]12c3ccccc3C1CCCC2N1CCOCC1 (stereo not given in full) | > 100 µM (inactive) |
| O=C1C[C@H]2CC3(CC[C@H]2CN1)OCCO3 | > 100 µM (inactive) |
| C/C=C(\C)[C@@H](O)C(=O)O[C@@H]1CC(C(C)(C)O)[C@](C)(CCC(=O)OC)[C@H]2[C@H](OC(=O)[C@H](O)[C@H](C)CC)C[C@]3(C)C(=CC[C@H]3[C@H]3CO[C@H](C=C(C)C)C3)[C@]12C (stereo not given in full) | 20.9 µM (inactive) |
| COc1c2c(cc3c1OCO3)[C@]13C=C[C@H](OC)C[C@H]1N(C2)CC3O (stereo not given in full) | > 100 µM (inactive) |
| CC1=CC2C(=O)N(c3ccccc3)C(=O)C2CC1n1[nH]c(=O)n(Cc2ccccc2)c1=O (stereo not given) | > 100 µM (inactive) |

* * *

- Tested on: HCT-116
- MEASUREMENT_NOTES: NCI tumour cell line growth inhibition, 48 h
The source made the active and inactive calls. Cut-off read from the data, not from the text of the source: active = GI50 up to about 1.1 µM and inactive = higher.

| MOLECULE | GI50 |
| --- | --- |
| O=C(/N=N/c1cc(Cl)ccc1Cl)NNc1cc(Cl)ccc1Cl | 18.6 µM (inactive) |
| O=C(c1cc(Cl)cc(Cl)c1)N(Cc1cccnc1)C(=S)N(Cc1cccnc1)C(=O)c1cc(Cl)cc(Cl)c1 | 31.1 µM (inactive) |
| C=C[C@@H]1C[C@]2(C(=O)OC)Cc3nc4ccccc4nc3CC(C(=O)OC)=C2O1 | > 100 µM (inactive) |
| Cc1ccc(C(=O)Nc2ncn(C3CC(O)C(CO)O3)c(=O)n2)cc1 (stereo not given) | > 100 µM (inactive) |
| Cc1ccc(S(=O)(=O)N2CCCSCCN(S(=O)(=O)c3ccc(C)cc3)CCCSCC2)cc1 | > 100 µM (inactive) |

* * *

- Tested on: COLO 205
- MEASUREMENT_NOTES: NCI tumour cell line growth inhibition, 48 h
The source made the active and inactive calls. Rule as the data show it: active = GI50 up to about 1.1 µM and inactive = higher.
Recorded GI50 values for a group of compounds are listed next.

| COMPOUND | GI50 |
| --- | --- |
| COC(=O)C(C)(C)NC(=O)C(Cc1ccccc1)Nc1ncnc2c1ncn2-c1ccc(OC)cc1 (stereo not given) | 17.7 µM (inactive) |
| COc1cc(NCC2COc3c(ccc(OC)c3OC)C2=O)c([N+](=O)[O-])cc1OC (stereo not given) | 54.7 µM (inactive) |
| O=C1C=C(Br)C(=O)C12CCc1ccccc12 (stereo not given) | 4.05 µM (inactive) |
| COc1ccc2oc(S(=O)(=O)N3CC(CCl)c4ccc(N)cc43)cc2c1 (stereo not given) | 2.11 µM (inactive) |
| CN(C)CC1CC/C(=C\c2ccc(O)cc2)C1=O (stereo not given) | 1.87 µM (inactive) |
| COC(=O)c1c(C(=O)OC)c2ccc(-c3ccc(Cl)cc3)nn2c1C(=O)c1ccc([N+](=O)[O-])cc1 | 27.3 µM (inactive) |
| COc1cc(C2c3cc4c(cc3OC(N3CCCCC3)C2C)OCO4)cc(OC)c1O (stereo not given) | 17.7 µM (inactive) |
| Nc1nc(O)c2c(n1)NCN(c1ccc(S(N)(=O)=O)cc1)C2 | > 100 µM (inactive) |
| Cc1nc2c(=O)[nH]c(=O)n(C)c2[nH]c1=O.c1ccncc1 | > 100 µM (inactive) |
| CC(=O)Nc1ccc(/C=C/c2ccc(NC(=O)Nc3ccc(/C=C/c4ccc(NC(C)=O)cc4S(=O)(=O)O)c(S(=O)(=O)O)c3)cc2S(=O)(=O)O)c(S(=O)(=O)O)c1 | > 100 µM (inactive) |
